FYI, the data here is from patent US6461997B1.

So I've got a bunch of compounds here, and I need their inhibition at 100 g/ha values.
- System: BROTE (downy brome)
- Assay: Pre-plant incorporated (PPI) herbicidal activity, cool season
- Assay type: in vivo, Bromus tectorum
- Condition Context: Bromus tectorum; weed, PPI application, 100 g/ha; read-out: Percent inhibition BROTE
Numbers only, in %.

The following compounds have reported results that may help.
- C=C(C)CC(F)(F)S(=O)(=O)c1ncn(C(=O)N(CC)CC)n1 [Example 18]: 0
- CCN(CC)C(=O)n1cnc(S(=O)(=O)C(F)(F)Br)n1 [Example 1]: 20
- C=CCC(F)(F)S(=O)(=O)c1ncn(C(=O)N(CC)CC)n1 [Example 17]: 20
- C=C(Br)CC(F)(F)S(=O)(=O)c1ncn(C(=O)N(CC)CC)n1 [Example 19]: 20

### Prompt Lookup: inhibition at 100 g/ha / BROTE (downy brome) / CCSC(F)(F)S(=O)(=O)c1ncn(C(=O)N(CC)CC)n1 [Example 8]
### Response 0

###

- Test system: AGRRE (quackgrass (seedling))
- Assay: Pre-plant incorporated (PPI) herbicidal activity, cool season
- Format: in vivo, Elymus repens
- Condition Context: Elymus repens; weed, PPI application, 900 g/ha; read-out: Percent inhibition AGRRE
Measured Property: inhibition at 900 g/ha (%)
Numbers only, in %.

Field: example entries. Status: answers known.
- C=C(Br)CC(F)(F)S(=O)(=O)c1ncn(C(=O)N(CC)CC)n1: 80
- C=C(C)CC(F)(F)S(=O)(=O)c1ncn(C(=O)N(CC)CC)n1: 80
- CCSC(F)(F)S(=O)(=O)c1ncn(C(=O)N(CC)CC)n1: 100
- CCN(CC)C(=O)n1cnc(S(=O)(=O)C(F)(F)Br)n1: 95

Okay, now this compound:
### Prompt What measured inhibition at 900 g/ha goes with `C=CCC(F)(F)S(=O)(=O)c1ncn(C(=O)N(CC)CC)n1` ?
### Response 70

###

- System: LOLMG (annual ryegrass)
- Assay: Pre-plant incorporated (PPI) herbicidal activity, cool season
- Type: in vivo, Lolium multiflorum
- Condition Context: weed, PPI application, 300 g/ha
- Protocol: In another set of tests, the pre-plant incorporated (PPI) activity of compounds of this invention was evaluated on the same species as for the pre-emergence tests described above. […] A pre-prepared topsoil mixture (described above) was placed in a pot and compacted to a depth of 1.0 to 1.25 cm from the top of the pot. […] A sufficient quantity of soil to cover the seeds and level fill the pot was weighed into an open container. […]
Measured Property: Percent inhibition LOLMG (%)
Numbers only, in %.

- C=C(CC(F)(F)S(=O)(=O)c1ncn(C(=O)N(CC)CC)n1)C[Si](C)(C)C: 85
- CCN(CC)C(=O)n1cnc(S(=O)(=O)C(F)(F)C(F)F)n1: 95
- CCN(CC)C(=O)n1cnc(S(=O)(=O)C(F)(F)F)n1: 100
- CCN(CC)C(=O)n1cnc(S(=O)(=O)C(F)(F)Cl)n1: 100
- CCN(CC)C(=O)n1cnc(S(=O)(=O)C(F)(F)SCc2ccccc2)n1: 100

Kindly give each listed record's Percent inhibition LOLMG.
1. CCN(CC)C(=O)n1cnc(S(=O)(=O)C(F)(F)SCCOC)n1
2. CCN(CC)C(=O)n1cnc(S(=O)(=O)C(F)(F)SC)n1
3. CCN(CC)C(=O)n1cnc(S(=O)(=O)C(F)(F)SCC(=O)OC)n1
4. CCN(CC)C(=O)n1cnc(S(=O)(=O)C(F)(F)C(F)(F)Br)n1

### Response
100
100
99
100

###

- Tested on: LAMPU (purple deadnettle)
- Assay: Pre-emergence herbicidal activity, cool season
- Assay type: in vivo, Lamium purpureum
- Condition Context: lowest tested rate with 80% or greater inhibition; rates 300, 100, 30, 10 g/ha; about 14 days
Measured Property: Pre-emergence activity GR80, LAMPU (g/ha)
Numbers only, in g/ha.

- CCN(CC)C(=S)n1cnc(S(=O)(=O)C(F)F)n1: 300
- COCCN(C)C(=O)n1cnc(S(=O)(=O)C(F)(F)C(F)F)n1: 300
- CCN(CC)C(=O)n1cnc(S(=O)(=O)C(F)(F)C(F)(F)Br)n1: 30
- C=C(CC(F)(F)S(=O)(=O)c1ncn(C(=O)N(CC)CC)n1)C[Si](C)(C)C: 100
- O=C(N1CCOCC1)n1cnc(S(=O)(=O)C(F)(F)Cl)n1: 300
- CN(C)C(=O)n1cnc(S(=O)(=O)C(F)(F)C(F)F)n1: 300

Go through the items and report each one's Pre-emergence activity GR80, LAMPU.
1. CN(C)C(=O)n1cnc(S(=O)(=O)C(F)(F)C(F)(F)Br)n1
2. CCN(CC)C(=O)n1cnc(S(=O)(=O)C(F)(F)Br)n1
3. C#CCN(C)C(=O)n1cnc(S(=O)(=O)C(F)(F)C(F)(F)Br)n1

### Response
1: 300; 2: 30; 3: 100

###

- Tested on: barley (HORVX)
- Assay: Selectivity test, PPI, cool season crop
- Format: in vivo, Hordeunm vulgare
- Condition Context: PPI application, 30 g/ha
Task for the reader: assign each of the following molecules its reported Percent inhibition HORVX.
Numbers only, in %.

Below: 3 molecules and their reported Percent inhibition HORVX.
* CCN(CC)C(=O)n1cnc(S(=O)(=O)C(F)(F)C(F)(F)Br)n1 | 0
* CCN(CC)C(=O)n1cnc(S(=O)(=O)C(F)(F)F)n1 | 0
* CCN(CC)C(=O)n1cnc(S(=O)(=O)C(F)(F)SCC(=O)OC)n1 | 0

Field: Percent inhibition HORVX. Fill in for each record below.
1. CCN(CC)C(=O)n1cnc(S(=O)(=O)C(F)(F)SC)n1
2. CCN(CC)C(=O)n1cnc(S(=O)(=O)C(F)(F)SCc2ccccc2)n1

### Response
[0, 0]

###

- Test system: POLCO (wild buckwheat)
- Assay: Pre-plant incorporated (PPI) herbicidal activity, cool season
- Format: in vivo, Polygonum convolvulus
- Condition Context: weed, PPI application, 900 g/ha
So I've got a bunch of compounds here, and I need their Percent inhibition POLCO values.
Numbers only, in %.

• CCN(CC)C(=O)n1cnc(S(=O)(=O)C(F)(F)C(F)(F)Br)n1 [Example 4] = 100

State the recorded Percent inhibition POLCO for every item in the following list.
1. CCN(CC)C(=O)n1cnc(S(=O)(=O)C(F)(F)SCc2ccccc2)n1 [Example 10]
2. CCN(CC)C(=O)n1cnc(S(=O)(=O)C(F)(F)C(F)F)n1 [Example 16]

### Response
[95, 95]

For every record below, what is its Percent inhibition POLCO?
1. CCN(CC)C(=O)n1cnc(S(=O)(=O)C(F)(F)SC)n1 [Example 9]
2. CCN(CC)C(=O)n1cnc(S(=O)(=O)C(F)(F)F)n1 [Example 2]

### Response
[100, 100]

Consider the following items and state reported Percent inhibition POLCO for each.
1. CCN(CC)C(=O)n1cnc(S(=O)(=O)C(F)(F)Cl)n1 [Example 3]
2. CCN(CC)C(=O)n1cnc(S(=O)(=O)C(F)(F)SCCOC)n1 [Example 13]
3. CCN(CC)C(=O)n1cnc(S(=O)(=O)C(F)(F)SCC(=O)OC)n1 [Example 11]

### Response
100
90
30

###

- System: CHEAL (common lambsquarters)
- Assay: Pre-plant incorporated (PPI) herbicidal activity, warm season
- Type: in vivo, Chenopodium album
- Condition Context: PPI application, 100 g/ha
- Method: In another set of tests, the pre-plant incorporated (PPI) activity of compounds of this invention was evaluated on the same species as for the pre-emergence tests described above. […] A pre-prepared topsoil mixture (described above) was placed in a pot and compacted to a depth of 1.0 to 1.25 cm from the top of the pot. […] A sufficient quantity of soil to cover the seeds and level fill the pot was weighed into an open container. […]
Measured Property: Percent inhibition CHEAL
Put down the number, then write its unit next to it.

Worked examples, 4 compounds total:
• CCN(CC)C(=O)n1cnc(S(=O)(=O)C(F)(F)C(F)(F)Br)n1 = 100%
• CCN(CC)C(=O)n1cnc(S(=O)(=O)C(F)(F)C(F)F)n1 = 100%
• CCN(CC)C(=O)n1cnc(S(=O)(=O)C(F)(F)SCCOC)n1 = 100%
• CCN(CC)C(=O)n1cnc(S(=O)(=O)C(F)(F)F)n1 = 95%

Now take the following compound into account.
### Prompt Consider the compound `CCN(CC)C(=O)n1cnc(S(=O)(=O)C(F)(F)SC)n1` and give its measured Percent inhibition CHEAL.
### Response 100%

###

- System: SORVU (shattercane)
- Assay: Pre-emergence herbicidal activity, warm season
- Type: in vivo, Sorghum vulgare
- Condition Context: GR80 = lowest tested rate (300, 100, 30, 10 g/ha) with 80% or greater inhibition; approx. 14 days after treating; 30/21° C.
For each of the molecules below, state its Pre-emergence activity (GR80) SORVU.
Give bare numbers, in g/ha.

Reference set, count: 5
- CCN(CC)C(=O)n1cnc(S(=O)(=O)C(F)(F)Cl)n1: 100
- CCSC(F)(F)S(=O)(=O)c1ncn(C(=O)N(C)C2CCCCC2)n1: 300
- CCSC(F)(F)S(=O)(=O)c1ncn(C(=O)N(CC)CC)n1: 100
- CCSC(F)(F)S(=O)(=O)c1ncn(C(=O)N(C)C)n1: 300
- CN(C(=O)n1cnc(S(=O)(=O)C(F)(F)Cl)n1)C1CCCCC1: 300

Now consider the entry below.
### Prompt Tell me reported Pre-emergence activity (GR80) SORVU for `CCCN(CC)C(=O)n1cnc(S(=O)(=O)C(F)(F)C(F)(F)Br)n1` , tested with SORVU (shattercane).
### Response 300
